src = the supplement of paper PMC10567573

B1: FAM50A (parent)
chain: KKREKQREQMEQMKQRIAEENIMK

Variants of: B1
PROTOCOL_DETAILS: protein stability index of a GFP-peptide fusion (GPS, HEK-293T) (PSI 1-6); higher = more stable;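 further: lentivirally expressed fusions sorted by FACS into six bins by GFP to DsRed ratio, PSI derived from sequencing read proportions per bin multiplied by bin number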
RUN_CONDITIONS: c terminus: a fixed tail appended
REPORTED_ENDPOINT: protein stability index
Field format: numeric only.

QUERY: For the variant shown here, K2M , give the reported protein stability index.
RESULT: 4.64

QUERY: Looking for the measured protein stability index of K5L , can you help?
RESULT: 4.68

QUERY: Field request: protein stability index | item: K2G
RESULT: 4.55

QUERY: Given the entry K5R , report its measured protein stability index.
RESULT: 4.62

QUERY: Item Q9L has what recorded protein stability index?
RESULT: 4.92

QUERY: Look up protein stability index: I17N
RESULT: 5.2

QUERY: Name the recorded protein stability index for M13H .
RESULT: 4.65

QUERY: For the variant E8K , what protein stability index is on record?
RESULT: 4.48

QUERY: Name the recorded protein stability index for E8S .
RESULT: 4.41

QUERY: Consider the variant I22L and give its measured protein stability index.
RESULT: 4.91

QUERY: State the recorded protein stability index for this entry: E4Q
RESULT: 4.79

QUERY: Which protein stability index value is on record for Q9R ?
RESULT: 4.56

QUERY: Value lookup for protein stability index; key = I22E
RESULT: 5.68

QUERY: Quick check: protein stability index of K14I ?
RESULT: 4.05

QUERY: Which protein stability index is reported for this variant? K2V
RESULT: 4.52

QUERY: Name the recorded protein stability index for R3L .
RESULT: 4.93

QUERY: What protein stability index value was documented for this variant, Q12P ?
RESULT: 4.9

QUERY: // returns reported protein stability index for input M10A
RESULT: 4.92

QUERY: # input variant: E11K ; wanted: its protein stability index
RESULT: 4.5

QUERY: Look at this variant and give its reported protein stability index. E4N
RESULT: 4.37

QUERY: Request the reported protein stability index associated with K2A
RESULT: 4.57

QUERY: Data request, read-out protein stability index, for N21L
RESULT: 3.99
